Tested on: CAL-51
Assay: normalised viability (% of control), CellTiter-Blue; higher = more viable cells (about 100 = DMSO control)
Details: incubation time: 72 h
Recorded Endpoint: normalised viability (%)
Give the number; % is assumed, so skip it.

Recorded results for 5 compounds are shown here.
>>> print(df.to_string())
                                   compound  unit_abbrev  endpoint_value
0  CC(C)(C)c1cc(NC(=O)Nc2ccc(-c3cn4c(n3)sc3cc(OCCN5CCOCC5)ccc34)cc2)no1 [Quizartinib] (30 nM)            %             101
1  CC[C@@]1(O)C(=O)OCc2c1cc1n(c2=O)Cc2cc3ccccc3nc2-1 [Camptothecin] (150 nM)            %            12.7
2  C#Cc1cccc(Nc2ncnc3cc(OC)c(OCCCCCCC(=O)NO)cc23)c1 [CUDC-101] (300 nM)            %             105
3  COc1cc(Nc2ncc(F)c(Nc3ccc4c(n3)NC(=O)C(C)(C)O4)n2)cc(OC)c1OC [R406] (300 nM)            %             114
4  CCOc1cc2ncc(C#N)c(Nc3ccc(OCc4ccccn4)c(Cl)c3)c2cc1NC(=O)/C=C/CN(C)C [Neratinib] (30 nM)            %              96

# input Fetch value of normalised viability on CAL-51 for CCCC(CCC)C(=O)O [Valproic acid] (300 nM) .
# output 103

# input Fetch value of normalised viability on CAL-51 for O=c1[nH]c(=O)n([C@H]2C[C@H](O)[C@@H](CO)O2)cc1F [Floxuridine] (300 nM) .
# output 35

----------
Test system: HDQ-P1
Assay: normalised response (% of control), CellTiter-Glo; higher = more viable cells (100 = DMSO, 0 = benzethonium chloride kill control)
Details: incubation time: 72 h
Recorded normalised response for the following compounds
Give the number; % is assumed, so skip it.

Recorded results for 3 compounds are shown here.
Compound	Unit Abbrev	normalised response
Nc1nccc(-c2c(-c3ccc(F)cc3)ncn2C2CCCCC2)n1 (100 nM)	%	95.2
Cn1c(=O)c(F)c(Nc2ccc(I)cc2F)c2c(=O)n(C[C@@H](O)CO)cnc21 [TAK-733] (10 nM)	%	74.5
Cc1cc(C(C)Nc2ccccc2)c2nc(N3CCOCC3)cc(=O)n2c1 (stereo unspecified) [TGX-221] (100 nM)	%	98.7

# input Fetch value of normalised response on HDQ-P1 for C#Cc1cccc(Nc2ncnc3cc(OC)c(OCCCCCCC(=O)NO)cc23)c1 [CUDC-101] (100 nM) .
# output 84

# input Fetch value of normalised response on HDQ-P1 for C[C@@H]1C=C2C(=O)O[C@@H]3CC[C@H](C1)[C@]23O [Galiellalactone] (500 nM) .
# output 103

----------
Test system: MDA-MB-231
Experiment: drug sensitivity score (DSS), CellTiter-Glo (DSS (AUC-based score)); higher = stronger drug effect (viability inhibition or cytotoxicity); extreme values may be limits of the assay
Conditions: incubation time: 72 h
Recorded drug sensitivity score for the following compounds
Quick one: just the number, no unit, thanks!

Recorded results for 5 compounds are shown here.
In [3]: df
Out[3]:
                           smiles_structure  endpoint_value
0  CN(c1ccccc1CNc1nc(Nc2ccc3c(c2)CC(=O)N3)ncc1C(F)(F)F)S(C)(=O)=O            7.82
1  O=C(c1ccc(OCCN2CCCCC2)cc1)c1c(-c2ccc(O)cc2)sc2cc(O)ccc12               0
2  Cn1c(=O)c(F)c(Nc2ccc(I)cc2F)c2c(=O)n(C[C@@H](O)CO)cnc21            3.88
3  O=c1[nH]c(=O)n([C@H]2C[C@H](O)[C@@H](CO)O2)cc1F            4.12
4  C#Cc1cccc(Nc2ncnc3cc(OC)c(OCCCCCCC(=O)NO)cc23)c1            13.1

With those in mind, consider the next compound.
# input Output drug sensitivity score of CN1CCN(c2ccc3nc(-c4c(N)c5c(F)cccc5[nH]c4=O)[nH]c3c2)CC1
# output 0
